# Protocol: chemical genetic growth profiling, strain panel (AID 1159580);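 note: tested at 20 µM; growth read once vehicle control cultures reached saturation at 30 °C; 1 = growth at the plate median or of vehicle wells; lower values mean less growth of the strain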
# Study conditions: S. cerevisiae deletion strains, growth OD, locus YMR307W, strain GAS1
In all, about 5,500 compounds went through this assay and about 2,000 (36%) were called active. Another 18% or so got no clear call; they are omitted. Cut-off read from the data, not from the text of the source: active = normalized growth mostly below about 0.91 (no sharp cut-off); inconclusive = no clear call, values can overlap the other calls; inactive = mostly above about 0.92. The list shows a part of the results.
Select the correct class. Options are active, inactive and nothing else.

Some entries whose results are on file:
// query Please share the test call associated with `Nc1ccc(Sc2cc(Cl)ccc2Cl)nc1` .
// result active

// query Let us now turn to CC(=O)O[C@@H]1C2CC[C@@H]3C1(C[C@@H](O)[C@@]1(O)[C@@H](C[C@H](O)C1(C)C)[C@]3(C)O)C[C@@]2(C)O (stereo not given in full)
// result inactive

// query Another compound to look at: `O=C1C=C(O)c2ccccc2C1=O`
// result inactive

// query Try this compound next: `NC(N)=NCc1cccc(I)c1`
// result inactive

Next:
// query Please share the test call associated with CC(=O)OC1CCC23CC1(C)CCC2C(C)(C)CC3OC(C)=O (stereo not given) .
// result inactive

* * *

# Protocol: chemical genetic growth profiling, strain panel (AID 1159580)
# Study conditions: S. cerevisiae deletion strains, growth OD, locus YHR079C, strain IRE1, active compounds read low
The whole screen tested about 5,500 compounds, of which about 2,000 (36%) were called active. Inconclusive results (about 18%) are left out. This is one part of the list.
What normalized growth was measured for each of the following?
Answers are plain numbers.

// query Could you tell me which normalized growth is on file for `CCCCCC/C=C\CCCCCCCc1cccc(O)c1C(=O)O` ?
// result 1.01

Answer for every listed entry: what is its normalized growth? The entries follow.
1. Cc1csc2ncnc(N3CCN(C(=O)Nc4ccc(SC(F)(F)F)cc4)CC3)c12
2. CC(C)Sc1c(Cl)cccc1NC(=O)Nc1cccc(C(F)(F)F)c1

// result
1. 0.866
2. 0.953

* * *

# Protocol: chemical genetic growth profiling, strain panel (AID 1159580)
# Study conditions: S. cerevisiae deletion strains, growth OD, locus YFR028C, strain CDC14, active compounds read low
The whole screen tested about 5,500 compounds, of which about 2,000 (36%) were called active. Inconclusive results (about 18%) are left out. This is one part of the list.
Assay metric: normalized growth

// query Which normalized growth value belongs to `Cc1csc2c(N3CCN(C(=S)Nc4ccc(C(F)(F)F)cc4)CC3)ncnc12` ?
// result 0.978 (inactive)

// query Thanks! And `Cc1cc(N=Cc2cc(Cl)cc(Cl)c2O)no1` ?
// result 0.971 (inactive)

// query Also CC1SC(c2cccnc2)N(c2ccc(Cl)cc2)C1=O (stereo unspecified) ?
// result 0.945 (inactive)

// query Next compound up: `NNC(=O)c1oc2nc(-c3ccccc3)cc(-c3ccccc3)c2c1N`
// result 0.976 (inactive)

// query Ok, now `O=C(Nc1cc(Cl)cc(Cl)c1)c1cc(Cl)ccc1O`
// result 0.928 (inactive)

More entries:
// query Sample `CC(C)(C)c1ccc(-c2cc(NC(=O)c3ccc(Cl)cc3)n[nH]2)cc1` — what was its normalized growth?
// result 1.01 (inactive)

* * *

Hi there, I'd appreciate the recorded normalized growth for every entry that follows.
# Protocol: chemical genetic growth profiling, strain panel (AID 1159580);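 note: tested at 20 µM; growth read once vehicle control cultures reached saturation at 30 °C; 1 = growth at the plate median or of vehicle wells; lower values mean less growth of the strain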
# Study conditions: S. cerevisiae deletion strains, growth OD, locus YCL061C, strain MRC1, active compounds read low
Hit rate of the full screen: of about 5,500 compounds, about 2,000 (36%) were called active. Inconclusive results (about 18%) are left out. The list shows a part of the results.
Give bare numbers.

Below: 8 compounds and their reported normalized growth.
// query Requested field: normalized growth. Item: `CC(=O)CCCCn1c(=O)c2c(ncn2C)n(C)c1=O`
// result 1.01

// query Queued: CC(C)C1CCC(C(=O)N[C@@H](Cc2ccccc2)C(=O)O)CC1 (some centres undefined)
// result 0.972

// query Repeat with `COC(=O)c1cccc([N+](=O)[O-])c1-c1c(C(=O)OC)cccc1[N+](=O)[O-]`
// result 1.03

// query # repeat for CC(NC(C)(C)C)C(=O)c1cccc(Cl)c1 (centres undefined)
// result 0.994

// query Follow-up item: `Cn1c(=O)[nH]c2nc[nH]c2c1=O`
// result 0.999

// query Next compound up: `O=c1c(O)cccc2cc(O)c(O)c(O)c12`
// result 0.833

// query Also COC(=O)C[C@H]1C(C)(C)[C@@H](OC(C)=O)[C@@H]2CC3=C4CC(=O)O[C@@H](c5ccoc5)[C@]4(C)CCC3[C@@]1(C)C2=O (some centres undefined) , if possible.
// result 0.999

// query Quick one: `O=[N+]([O-])c1cc(Cl)c(Sc2ccccc2)cc1Sc1ccccc1`
// result 0.974

Batch request: normalized growth per item, same order as input.
1. CC12CCC(O)CC1CCc1ccccc12 (centres undefined)
2. Cn1c(=O)c2c(ncn2CCO)n(C)c1=O
3. O=C(/C=C/c1ccccc1)c1ccc(O)cc1O
4. Cn1nccc1NS(=O)(=O)c1ccc(C(C)(C)C)cc1
5. O=C(O)CCC(=O)OC[C@@H](NC(=O)C(Cl)Cl)[C@H](O)c1ccc([N+](=O)[O-])cc1
6. COc1ccccc1N1CC(C)(C)C(=O)N(C(=O)c2c(F)cccc2Cl)C1=S

// result
1. 0.967
2. 1.02
3. 0.0667
4. 0.982
5. 0.981
6. 1.02

* * *

For each record, write down the corresponding normalized growth.
# Protocol: chemical genetic growth profiling, strain panel (AID 1159580);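 note: tested at 20 µM; growth read once vehicle control cultures reached saturation at 30 °C; 1 = growth at the plate median or of vehicle wells; lower values mean less growth of the strain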
# Study conditions: S. cerevisiae deletion strains, growth OD, locus YDR069C, strain doa4, active compounds read low
Out of some 5,500 compounds screened, about 2,000 (36%) were called active. Roughly 18% stayed inconclusive and do not appear here. This is one part of the list.

Worked cases, normalized growth given:
// query I have this compound here, ClC1C(Cl)C(Cl)C(Cl)C(Cl)C1Cl (centres undefined) , and I need its recorded normalized growth.
// result 0.989 (inactive)

// query Entry CC(=O)O[C@H]1CC2CCC3C(CC[C@@]4(C)C3C[C@H]([N+]3(C)CCCCC3)[C@@H]4OC(C)=O)[C@@]2(C)C[C@@H]1N1CCCCC1 (some centres undefined) please
// result 1.02 (inactive)

// query Then `CC(=O)c1ccc[nH]1` ?
// result 1.01 (inactive)

// query Now consider CC(=O)OC[C@@]1(O)C[C@@]23CCC4c5ccoc5CC[C@]4(C)C2CC[C@@H]1C3 (some centres undefined) .
// result 1.02 (inactive)

// query Continue with C[C@H]1C(=O)CCC2[C@]3(C)CC[C@@]4(C)C5CC(C)(C)CC[C@]5(C)CC[C@]4(C)C3CC[C@@]21C (some centres undefined)
// result 0.992 (inactive)

List the reported normalized growth of each compound below.
1. CC(=O)Nc1c(I)cc(I)c(C(=O)O)c1I
2. O=C(O)C1=C(CSc2nnnn2CS(=O)(=O)O)CS[C@@H]2C(NC(=O)[C@H](O)c3ccccc3)C(=O)N12 (some centres undefined)
3. CC(=O)OC1CCC23CC1(C)CCC2C(C)(C)CC3OC(C)=O (centres undefined)

// result
0.959 (inactive)
0.982 (inactive)
1.01 (inactive)

Kindly give each listed record's normalized growth.
1. O=c1c(O)c(-c2ccccc2)oc2cc(O)ccc12
2. CC(=O)OC1CCC2(O)CC1(C)CCC1C2CC1(C)C (centres undefined)
3. CCCCCC/C=C\CCCCCCCc1cccc(O)c1C(=O)O
4. CC1=C(C(=O)O)N2C(=O)[C@@H](NC(=O)[C@@H](N)c3ccc(O)cc3)[C@H]2SC1
5. CC(C)C1CCC(C(=O)N[C@@H](Cc2ccccc2)C(=O)O)CC1 (some centres undefined)
6. COc1cc(Cc2cnc(N)nc2N)cc(OC)c1OC
7. O=c1c(O)c(-c2ccc(O)cc2)oc2ccccc12
8. C=C[C@H]1CN2CC[C@H]1C[C@H]2[C@H](O)c1ccnc2ccccc12

// result
1: 0.413 (active); 2: 1.03 (inactive); 3: 0.971 (inactive); 4: 1.05 (inactive); 5: 0.986 (inactive); 6: 1.03 (inactive); 7: 0.56 (active); 8: 1.01 (inactive)

* * *

# Protocol: chemical genetic growth profiling, strain panel (AID 1159580);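 note: tested at 20 µM; growth read once vehicle control cultures reached saturation at 30 °C; 1 = growth at the plate median or of vehicle wells; lower values mean less growth of the strain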
# Study conditions: S. cerevisiae deletion strains, growth OD, locus YDR001C, strain nth1, active compounds read low
About 2,000 (36%) of roughly 5,500 compounds were called active. Not shown: some 18% with an inconclusive outcome. Some of the results follow.
Field: normalized growth. Provide a value for each of the compounds that follow.
Numbers only.

// query If you can, please state the reported normalized growth value of `Cn1c(=O)c2c(ncn2C)n(C)c1=O` .
// result 0.966

// query Okay, and `O=C1C=CC(=O)c2c(O)cccc21` ?
// result 0.991

// query One more compound: `CCCCCCCCCCCCCCCC(=O)OC[C@H](NC(=O)C(Cl)Cl)[C@H](O)c1ccc([N+](=O)[O-])cc1`
// result 1.03

// query And what about the compound `NS(=O)(=O)c1cc2c(cc1Cl)NCNS2(=O)=O` ?
// result 0.996

// query Entry to check: CC1(C)CC23C(=O)CCC(O)C2(C)CCC13 (stereo not drawn)
// result 0.986

Hello, I would appreciate it if you could give normalized growth for each entry below.
1. O=C1c2cccc(O)c2C(=O)c2c(O)cccc21
2. CCCC(=O)Nc1ccc(OCC(O)CNC(C)C)c(C(C)=O)c1 (stereo not drawn)
3. Cc1cc(O)c2c(c1)C(=O)c1cccc(O)c1C2=O

// result
[0.977, 1.02, 0.998]

I have 5 compounds here; please give me normalized growth for each one.
1. COc1ccc(NS(=O)(=O)c2ccc(N)cc2)nn1
2. CC(C)c1cc2c(c(O)c1O)[C@@]1(C(=O)O)CCCC(C)(C)C1CC2 (stereo partly drawn)
3. O=C(N[C@@H](CO)[C@H](O)c1ccc([N+](=O)[O-])cc1)C(Cl)Cl
4. CNC(=O)Oc1ccccc1OC(C)C
5. O=C(c1ccccc1)c1ccc2n1CCC2C(=O)O (stereo not drawn)

// result
[1.01, 0.997, 1.02, 0.993, 0.968]
